Data provenance: the supplement of paper PMC10567573

B1: ESR2 (parent)
chain: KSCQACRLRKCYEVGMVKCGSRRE

# Variants of: B1
# test: protein stability index of a GFP-peptide fusion (GPS, HEK-293T) (PSI 1-6); higher = more stable;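 also: lentivirally expressed fusions sorted by FACS into six bins by GFP to DsRed ratio, PSI derived from sequencing read proportions per bin multiplied by bin number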
# details: c terminus: a fixed tail appended
Please respond with reported protein stability index for every item in the list.
Answer as a number with no unit attached.

Lookup result for "K1L" ; measured protein stability index: 1.95

Lookup result for "S21I" ; measured protein stability index: 1.69

Lookup result for "R9D" ; measured protein stability index: 1.75

Lookup result for "C19D" ; measured protein stability index: 2.51

Lookup result for "C3A" ; measured protein stability index: 2.66

Lookup result for "R7H" ; measured protein stability index: 1.81

Lookup result for "K18Q" ; measured protein stability index: 1.7

Lookup result for "M16C" ; measured protein stability index: 3.01

Lookup result for "R23D" ; measured protein stability index: 2.48

Lookup result for "V14N" ; measured protein stability index: 2.34

Lookup result for "S21T" ; measured protein stability index: 2.31

Lookup result for "C6E" ; measured protein stability index: 2.38

Lookup result for "K10W" ; measured protein stability index: 1.74

Lookup result for "S21Q" ; measured protein stability index: 1.32

Lookup result for "K18A" ; measured protein stability index: 1.89

Lookup result for "R23G" ; measured protein stability index: 1.79

Lookup result for "V17Q" ; measured protein stability index: 2.1

Lookup result for "K10Y" ; measured protein stability index: 1.79

Lookup result for "R9M" ; measured protein stability index: 1.93

Lookup result for "K18H" ; measured protein stability index: 2.33

Lookup result for "E13G" ; measured protein stability index: 2.3

Lookup result for "G20A" ; measured protein stability index: 1.91

Lookup result for "K18P" ; measured protein stability index: 1.72

Lookup result for "Y12E" ; measured protein stability index: 2.85

Lookup result for "R7Q" ; measured protein stability index: 1.66

Lookup result for "S2N" ; measured protein stability index: 1.98
